Experiment: ATG_AP_1_CIS: Attagene CIS-FACTORIAL HepG2 Assay for human Activator Protein 1 (AP-1) (AID 2282931)
Conditions: HepG2 Attagene cis-factorial AP-1 reporter mRNA; actives raise or lower the signal
The source made the active and inactive calls. The calls were made as follows: active = hit-call score of the fitted dose curve at least 0.9, where 1 is the maximum; inactive = score below 0.9.
I would appreciate it if you answered using one of these outcomes: active, inactive

- O=c1[nH]c(=O)[nH]c(=O)[nH]1: inactive
- CCOP(OCC)OCC: inactive
- COc1ccccc1OC: inactive
- O=C(OC1CCCCC1)c1ccccc1C(=O)OC1CCCCC1: active
- CCCCCCCCSC(=O)Oc1cc(Cl)nnc1-c1ccccc1: active

**Q:** Per the records of this test, what outcome belongs to CCOP(=S)(OCC)Oc1nc(Cl)c(Cl)cc1Cl ?
**A:** active

**Q:** Per the records of this test, what outcome belongs to O=C(c1ccccc1)C(Cl)Cl ?
**A:** active

Just for reference, PubChem BioAssay (EPA / NIEHS) is where these values come from.
